// values below are reported IC50
test system: RNA polymerase II Serine 5 phosphorylation in A549 cells overexpressing CDK7 mutant (C312S); experiment: Imaging-based cellular RNA PolII Ser5 phosphorylation assay in A549 cells overexpressing CDK7-mutant (C312S); type: cell-based, human; conditions: Homo sapiens, A549, A549 cells overexpressing CDK7 mutant (C312S); read-out: CDK7_ A549 mutant hCDK7(pIC50) (converted)

Example cases with answers are listed next.
The molecule listed as CC#CC(=O)N1CC(N2CCC(c3cc(C)c4c(c3)Nc3ncnc(N5CCS(=O)(=O)CC5)c3[C@H](C)O4)CC2)C1 (single isomer, unassigned) [compound 150] has a reported IC50 of > 10 µM

The molecule listed as C=CC(=O)N1CC(N2C3CCC2CC(c2ccc4c(c2)Nc2ncnc(N5CCOCC5)c2CO4)C3)C1 (stereo not drawn) [compound 40] has a reported IC50 of > 10 µM

The molecule listed as C=CC(=O)N1CC(N2CC[C@H](c3cc(C)c4c(c3)Nc3ncnc(N5CCOCC5)c3CO4)C2)C1 [compound 23] has a reported IC50 of > 10 µM

The molecule listed as C=CC(=O)N1CC[C@@H](N2CC(c3cc4c(c(C5CC5)c3)O[C@@H](C)c3c(ncnc3N3CCS(=O)(=O)CC3)N4)C2)C1 (single isomer, unassigned) [compound 98] has a reported IC50 of > 10 µM

The molecule listed as CC#CC(=O)N1CCC(N2CC(c3cc(C)c4c(c3)Nc3ncnc(N5CCS(=O)(=O)CC5)c3C(C)O4)C2)CC1 (racemic) [compound 123] has a reported IC50 of 8.32 µM

Next, consider the following molecule.
The molecule listed as C=CC(=O)N1CC(N2CCC(c3cc(F)c4c(c3)Nc3ncnc(N5CCOCC5)c3CO4)CC2)C1 [compound 20] has a reported IC50 of > 10 µM

---

target: CDK7/cyclinH/MAT1 trimeric complex (Homo sapiens (Human), UniProt P50613); assay: In vitro CDK7 assay, potency of irreversible covalent inhibitors (kinact/KI); conditions: 20 nM enz.
Sequence (P50613 whole entry): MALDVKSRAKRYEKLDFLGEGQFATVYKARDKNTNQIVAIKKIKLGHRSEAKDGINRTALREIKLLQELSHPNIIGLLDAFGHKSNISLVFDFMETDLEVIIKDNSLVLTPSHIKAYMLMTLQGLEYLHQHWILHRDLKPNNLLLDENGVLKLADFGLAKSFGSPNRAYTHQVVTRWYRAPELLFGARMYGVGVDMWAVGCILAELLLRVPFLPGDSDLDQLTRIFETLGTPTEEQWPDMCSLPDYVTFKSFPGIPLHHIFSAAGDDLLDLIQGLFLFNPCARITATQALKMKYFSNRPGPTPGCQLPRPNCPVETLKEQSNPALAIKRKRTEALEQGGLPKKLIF
Sequence (P51946 whole entry partner): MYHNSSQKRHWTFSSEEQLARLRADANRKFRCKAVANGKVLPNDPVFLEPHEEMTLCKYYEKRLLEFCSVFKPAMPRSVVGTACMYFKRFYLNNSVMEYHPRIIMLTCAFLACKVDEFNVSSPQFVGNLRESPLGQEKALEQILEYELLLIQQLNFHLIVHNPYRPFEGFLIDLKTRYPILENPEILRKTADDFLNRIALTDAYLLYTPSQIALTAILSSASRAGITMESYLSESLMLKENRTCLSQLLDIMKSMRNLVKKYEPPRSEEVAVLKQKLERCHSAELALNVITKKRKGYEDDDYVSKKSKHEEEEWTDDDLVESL
Sequence (P51948 whole entry partner): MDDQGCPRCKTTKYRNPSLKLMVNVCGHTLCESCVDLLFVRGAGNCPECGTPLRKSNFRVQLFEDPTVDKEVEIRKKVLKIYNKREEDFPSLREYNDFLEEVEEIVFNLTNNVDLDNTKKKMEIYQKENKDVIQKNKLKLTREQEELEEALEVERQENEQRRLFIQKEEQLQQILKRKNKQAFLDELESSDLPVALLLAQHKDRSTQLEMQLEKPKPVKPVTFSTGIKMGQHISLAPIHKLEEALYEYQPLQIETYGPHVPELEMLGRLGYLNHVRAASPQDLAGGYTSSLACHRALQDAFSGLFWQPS
OUTCOME_MEASURE: CDK7 (20 nM enz.) (kinact, s^−1) (s⁻¹)
Value expressed in s⁻¹; do not type the unit.

Example cases with answers are listed next.
The compound listed as C=CC(=O)N1CC[C@@H](N2CCC(c3cc(C)c4c(c3)Nc3ncnc(N5CCOCC5)c3CO4)CC2)C1 has a reported CDK7 (20 nM enz.) (kinact, s^−1) of 8.3e-05

The compound listed as C=CC(=O)N1CC(N2CCC(c3cc4c(cn3)O[C@@H](C)c3c(ncnc3N3CCOCC3)N4)CC2)C1 (single isomer, unassigned) has a reported CDK7 (20 nM enz.) (kinact, s^−1) of 4.79e-05

The compound listed as C=CC(=O)N1CC[C@H](N2CCC(c3cc(C)c4c(c3)Nc3ncnc(N5CCOCC5)c3CO4)CC2)C1 has a reported CDK7 (20 nM enz.) (kinact, s^−1) of 0.0001275

The compound listed as C=CC(=O)N1CC[C@H](N2CCC(c3cc(C)c4c(c3)Nc3ncnc(N5CCS(=O)(=O)CC5)c3CO4)CC2)C1 (single isomer, unassigned) has a reported CDK7 (20 nM enz.) (kinact, s^−1) of 5.98e-05

The compound listed as C=CC(=O)N1CC[C@H](N2CC(c3cc(C)c4c(c3)Nc3ncnc(N5CCS(=O)(=O)CC5)c3[C@H](C)O4)C2)C1 (single isomer, unassigned) has a reported CDK7 (20 nM enz.) (kinact, s^−1) of 3.89e-05

The compound listed as C=CC(=O)N1CC[C@@H](N2CC(c3cc(C)c4c(c3)Nc3ncnc(N5CCS(=O)(=O)CC5)c3[C@@H](C)O4)C2)C1 (single isomer, unassigned) has a reported CDK7 (20 nM enz.) (kinact, s^−1) of 4.85e-05

New cases:
The compound listed as CC#CC(=O)N1CC(N2CCC(c3cc(C)c4c(c3)Nc3ncnc(N5CCS(=O)(=O)CC5)c3[C@H](C)O4)CC2)C1 (single isomer, unassigned) has a reported CDK7 (20 nM enz.) (kinact, s^−1) of 4.7e-05

The compound listed as C=CC(=O)N1CCC(N2CC(c3cc(C)c4c(c3)Nc3ncnc(N5CCOCC5)c3CO4)C2)C(F)C1 (centres unmarked) has a reported CDK7 (20 nM enz.) (kinact, s^−1) of 7.3e-05

---

// values below are reported kinact
target: CDK7/cyclinH/MAT1 trimeric complex (Homo sapiens (Human)); test: In vitro CDK7 assay, potency of irreversible covalent inhibitors (kinact/KI); conditions: read-out: CDK7 (kinact, s^−1), Table B
Report the figure along with its unit, number first.

The compound listed as C=CC(=O)N1CCC(N2CCC(c3ccc4c(c3)Nc3ncnc(N5CCOCC5)c3CO4)CC2)CC1 has a reported kinact of 0.000198 s⁻¹

New cases:
The compound listed as C=CC(=O)N1CC[C@H](N2CCC(c3ccc4c(c3)Nc3ncnc(N5CCOCC5)c3CO4)CC2)C1 has a reported kinact of 0.000243 s⁻¹

The compound listed as C=CC(=O)N1CC(C2CCN(c3ccc4c(c3)Nc3ncnc(N5CCOCC5)c3CO4)CC2)C1 has a reported kinact of 0.000178 s⁻¹

The compound listed as C=CC(=O)N1CC(N2CCC(c3ccc4c(c3)Nc3ncnc(C5CCOCC5)c3CO4)CC2)C1 has a reported kinact of 9.7e-05 s⁻¹

The compound listed as C=CC(=O)N1CC(N2CC[C@@H](c3ccc4c(c3)Nc3ncnc(N5CCOCC5)c3CO4)C2)C1 has a reported kinact of 0.000155 s⁻¹

The compound listed as C=CC(=O)N1CC(N2CC[C@@H](c3ccc4c(c3)Nc3ncnc(N5CCOCC5)c3CO4)[C@@H](C)C2)C1 has a reported kinact of 8.19e-05 s⁻¹

The compound listed as C=CC(=O)N1CC(N2CCN(c3ccc4c(c3)Nc3ncnc(N5CCOCC5)c3CO4)CC2)C1 has a reported kinact of 0.000504 s⁻¹

The compound listed as C=CC(=O)N1CC(N2CCC(c3ccc4c(c3)Nc3ncnc(-c5ccc(=O)n(C)c5)c3CO4)CC2)C1 has a reported kinact of 0.000188 s⁻¹

The compound listed as C=CC(=O)N1CC(N2CC[C@H](c3ccc4c(c3)Nc3ncnc(N5CCOCC5)c3CO4)[C@H](C)C2)C1 (single isomer, unassigned) has a reported kinact of 0.000137 s⁻¹

The compound listed as C=CC(=O)NCCN1CCC(c2ccc3c(c2)Nc2ncnc(N4CCOCC4)c2CO3)CC1 has a reported kinact of 0.000166 s⁻¹

The compound listed as C=CC(=O)N1CC(N2CCCC(c3ccc4c(c3)Nc3ncnc(N5CCOCC5)c3CO4)C2)C1 (stereo not shown) has a reported kinact of 8.56e-05 s⁻¹

The compound listed as C=CC(=O)N1CC(N2CC[C@H](c3ccc4c(c3)Nc3ncnc(N5CCOCC5)c3CO4)C2)C1 (single isomer, unassigned) has a reported kinact of 0.000216 s⁻¹

The compound listed as C=CC(=O)N1CC(N2CCC(c3ccc4c(c3)Nc3ncnc(N5CCOCC5)c3CO4)CC2C)C1 (stereo not shown) has a reported kinact of 0.000186 s⁻¹

---

// values below are reported melting point
Value expressed in °C; do not type the unit.

Example cases with answers are listed next.
The molecule listed as C=CC(=O)N1CCC(N2CC(c3cc4c(c(C(F)(F)F)c3)OCc3c(ncnc3N3CCOCC3)N4)C2)CC1 has a reported melting point of 158

The molecule listed as C=CC(=O)N1CC[C@@H](N2CCC(c3cc(C)c4c(c3)Nc3ncnc(N5CCS(=O)(=O)CC5)c3CO4)CC2)C1 (single isomer, unassigned) has a reported melting point of 251

The molecule listed as C=CC(=O)N1CC(N2CCC(c3cc4c(cn3)O[C@H](C)c3c(ncnc3N3CCOCC3)N4)CC2)C1 (single isomer, unassigned) has a reported melting point of 250

New cases:
The molecule listed as C=CC(=O)N1CC(N2CCC(c3cc(C)c4c(c3)Nc3ncnc(N5CCS(=O)(=O)CC5)c3CO4)CC2)C1 has a reported melting point of 169

The molecule listed as C=CC(=O)N1CC(N2CCC(c3ccc4c(c3)Nc3ncnc(N5CCOCC5)c3C(CC)O4)CC2)C1 (stereo not drawn) has a reported melting point of 118

---

target: CDK7/cyclinH/MAT1 trimeric complex (Homo sapiens (Human)); assay: In vitro CDK7 assay, potency of irreversible covalent inhibitors (kinact/KI); settings: CDK7 (20 nM enz.) (KI, μM), 20 nM enz.
// values below are reported log10 Ki
// do not treat as linear: log10 of Ki, unit µM

Example cases with answers are listed next.
The compound listed as C=CC(=O)N1CC(N2CCC(c3ccc4c(c3)Nc3ncnc(N5CCOCC5)c3[C@H](CC)O4)CC2)C1 (single isomer, unassigned) has a reported log10 Ki of -0.58

The compound listed as C=CC(=O)N1CC(N2CCC(c3ccc4c(c3)Nc3ncnc(C5=CCOCC5)c3CO4)CC2)C1 has a reported log10 Ki of -0.21

The compound listed as C=CC(=O)N1CCC(N2CCN(c3cc(C)c4c(c3)Nc3ncnc(N5CCS(=O)(=O)CC5)c3CO4)CC2)CC1 has a reported log10 Ki of -0.89

The compound listed as C=CC(=O)N1CC[C@H](N2CCC(c3cc(F)c4c(c3)Nc3ncnc(N5CCOCC5)c3CO4)CC2)C1 (single isomer, unassigned) has a reported log10 Ki of -0.52

New cases:
The compound listed as C=CC(=O)N1CC[C@H](N2CC(c3cc4c(c(C5CC5)c3)OCc3c(ncnc3N3CCS(=O)(=O)CC3)N4)C2)C1 (single isomer, unassigned) has a reported log10 Ki of -0.30

The compound listed as C=CC(=O)N1CC(N2CCC(c3cc(Cl)c4c(c3)Nc3ncnc(N5CCOCC5)c3CO4)CC2)C1 has a reported log10 Ki of -1.55

The compound listed as C=CC(=O)N1CCC(N2CC(c3cc(C#N)c4c(c3)Nc3ncnc(N5CCOCC5)c3CO4)C2)CC1 has a reported log10 Ki of -0.53
